Target: PARP1 L698A/L701A (UniProt P09874 1-1014, L698A;L701A)
Sequence (P09874 whole entry L698A/L701A): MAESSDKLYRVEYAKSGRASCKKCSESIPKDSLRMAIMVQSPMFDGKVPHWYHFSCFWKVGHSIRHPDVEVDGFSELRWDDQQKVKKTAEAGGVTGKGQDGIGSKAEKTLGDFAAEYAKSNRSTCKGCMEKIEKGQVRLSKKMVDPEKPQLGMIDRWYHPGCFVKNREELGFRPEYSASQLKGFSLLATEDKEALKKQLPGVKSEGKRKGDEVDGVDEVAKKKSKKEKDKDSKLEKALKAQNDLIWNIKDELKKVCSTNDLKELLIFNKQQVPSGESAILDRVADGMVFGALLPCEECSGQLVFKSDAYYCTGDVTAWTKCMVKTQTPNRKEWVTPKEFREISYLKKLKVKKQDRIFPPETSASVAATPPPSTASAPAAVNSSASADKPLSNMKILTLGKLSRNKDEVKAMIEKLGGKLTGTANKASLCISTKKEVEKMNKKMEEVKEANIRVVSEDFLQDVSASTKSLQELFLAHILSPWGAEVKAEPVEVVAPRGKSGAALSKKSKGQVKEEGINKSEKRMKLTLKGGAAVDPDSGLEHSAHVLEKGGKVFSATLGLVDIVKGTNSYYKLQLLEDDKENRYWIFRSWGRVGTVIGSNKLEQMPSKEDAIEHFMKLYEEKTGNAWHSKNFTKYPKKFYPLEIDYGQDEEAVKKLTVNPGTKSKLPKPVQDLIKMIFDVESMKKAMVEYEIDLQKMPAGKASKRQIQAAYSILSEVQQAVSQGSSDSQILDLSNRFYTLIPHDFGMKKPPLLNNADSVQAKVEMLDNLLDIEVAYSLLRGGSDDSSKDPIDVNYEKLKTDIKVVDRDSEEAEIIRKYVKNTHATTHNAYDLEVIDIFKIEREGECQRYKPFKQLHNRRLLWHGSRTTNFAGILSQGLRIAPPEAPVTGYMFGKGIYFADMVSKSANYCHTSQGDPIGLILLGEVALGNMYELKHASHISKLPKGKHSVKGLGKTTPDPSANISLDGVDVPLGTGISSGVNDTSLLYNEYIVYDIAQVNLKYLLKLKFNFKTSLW
Test: fluorescence polarization
REPORTED_ENDPOINT: Kd

1) 18-bp DSB duplex (dsDNA) DNA 1: GGGTTGCGGCCGCTTGGG DNA 2: CCCAAGCGGCCGCAACCC : 64.4 nM
